These data points were gathered from patent US20060079453A1.

- System tested: HLA-A*0201 (Homo sapiens, UniProt P04439, D140Y/D185E/D98H/E176V/E277Q/G131W/G231S/I119V/I121R/I166T/I218V/L300P/L318F/N151K/N90K/P208A/P217A/Q86G/Q94H/R138H/R169H/T345S)
- Measurement protocol: biochemical
- Type: binding
pIC50: −log10 of the molar value. No end group written: not given here.
Measured property: pIC50

In [3]: df
Out[3]:
           residue_codes  measured_property  value
0               KLGSLQYL              pIC50   5.73
1              ILAEAMSQA              pIC50   7.54
2              MTGNPSIPV              pIC50   7.80
3  KLTPLCVAL [KLTPLCVAL]              pIC50   6.68
4               ILWQVDRM              pIC50   5.76
5              GLGAVSRDL              pIC50   4.73
6              VLAEAMSRA              pIC50   6.90

====

Let's look at some compounds and their measured IC50.
- System tested: HLA-DR DRB5*0101 (DR51) (Homo sapiens, UniProt P01903+Q30154)
- Measurement protocol: biochemical
- Type: binding
- Details: DRB5 *0101

Structure smiles string	IC50
CC[C@H](C)[C@H](NC(=O)[C@H](CO)NC(=O)[C@H](CO)NC(=O)[C@H](CC(=O)O)NC(=O)[C@H](C)NC(=O)[C@H](CC(N)=O)NC(=O)[C@@H](NC(=O)[C@H](Cc1ccc(O)cc1)NC(=O)[C@H](C)NC(=O)[C@@H](NC(=O)CNC(=O)[C@H](CCCNC(=N)N)NC(=O)[C@@H](N)CCC(=O)O)C(C)C)[C@@H](C)CC)C(=O)N[C@@H](CCC(=O)O)C(=O)NCC(=O)O	≥ 200 µM
CSCC[C@H](NC(=O)[C@@H](NC(=O)[C@H](CCCCN)NC(=O)[C@@H](NC(=O)[C@H](C)NC(=O)[C@H](CC(=O)O)NC(=O)[C@@H](N)[C@@H](C)O)C(C)C)C(C)C)C(=O)N[C@@H](CC(=O)O)C(=O)N[C@@H](CC(C)C)C(=O)N1CCC[C@H]1C(=O)N[C@H](C(=O)N[C@@H](CCC(N)=O)C(=O)N[C@@H](CCC(=O)O)C(=O)N1CCC[C@H]1C(=O)N[C@@H](C)C(=O)O)[C@@H](C)O	> 200 µM
CSCC[C@H](NC(=O)CNC(=O)[C@H](CC(C)C)NC(=O)[C@H](CCC(N)=O)NC(=O)[C@@H](NC(=O)[C@H](CC(C)C)NC(=O)[C@H](CCC(N)=O)NC(=O)CNC(=O)[C@@H](N)Cc1ccccc1)[C@@H](C)O)C(=O)N[C@@H](CCC(=O)O)C(=O)N[C@@H](CCC(N)=O)C(=O)N[C@@H](Cc1c[nH]cn1)C(=O)N[C@@H](Cc1ccc(O)cc1)C(=O)N[C@@H](CCC(=O)O)C(=O)N[C@@H](CC(C)C)C(=O)O	≥ 100 µM
